Catalogue of melting point readings, one per entry.
Counter-ions that a name gives are not always drawn.

// below: answered compounds
compound	melting point
C1=C(CSC2=NCc3ccccc3N2)N2C(=Nc3ccccc3C2c2ccccc2)S1 (stereo not drawn) (as salt: hydrochloride) [Example 43, dihydrochloride]	184 to 190 °C
CC1CCN(CCSC2=NCc3ccccc3N2)C1 (stereo not drawn) (as salt: hydrochloride) [Example 138, dihydrochloride]	178 to 182 °C

Here's the next entry for you.
Exam item: Look up melting point: C1=C(CSC2=NCc3ccccc3N2)N2CC(Cc3ccccc3)N=C2S1 (stereo not drawn) (as salt: hydrochloride) [Example 65, dihydrochloride]
Marked response: 142 to 148 °C
